Measured UEMM-PBSA, listed per entry for reference.
- TARGET_OF_ASSAY: SARS-CoV-2 M^pro (Severe acute respiratory syndrome coronavirus 2, UniProt P0DTD1)
- EXPERIMENTAL_CONDITIONS: unsigned error |ΔGMM-PBSA − ΔGexp|
Structures can show the parent of a compound that is named as a salt.
Express your answer in kcal/mol, writing the number without its unit.

Solved entries (count: 2):
- MOLECULE: "CN(C)[C@@H]1C(O)=C(C(N)=O)C(=O)[C@@]2(O)C(O)=C3C(=O)c4c(O)cccc4[C@@](C)(O)[C@H]3[C@H](O)[C@@H]12"
  UNITS: "kcal/mol"
  UEMM-PBSA: 1.8
- MOLECULE: "CC(C)[C@H](N)C(=O)OCCOCn1cnc2c(=O)[nH]c(N)nc21 [Valacyclovir hydrochloride]"
  UNITS: "kcal/mol"
  UEMM-PBSA: 12.7

Now let's try a different one.
Documented UEMM-PBSA of CCN(CC)CCCC(C)Nc1ccnc2cc(Cl)ccc12 (stereo not drawn) : 16.1
